B1: PTPRD (parent)
chain: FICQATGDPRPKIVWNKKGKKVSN

Variants of: B1
Experiment: protein stability index of a GFP-peptide fusion (GPS, HEK-293T) (PSI 1-6); higher = more stable;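 also: lentivirally expressed fusions sorted by FACS into six bins by GFP to DsRed ratio, PSI derived from sequencing read proportions per bin multiplied by bin number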
Details: c terminus: a fixed tail appended
Please go through the items and note down their protein stability index.
Give a plain numeric answer without units written out.

Item FICQATGDPRGKIVWNKKGKKVSN [P11G] has what recorded protein stability index? 2.04

Item FICQATGDPRPKIVWNKQGKKVSN [K18Q] has what recorded protein stability index? 1.74

Item FICQATGDPRPKIYWNKKGKKVSN [V14Y] has what recorded protein stability index? 1.59

Item FICQPTGDPRPKIVWNKKGKKVSN [A5P] has what recorded protein stability index? 2.04

Item FICQATGDPRPKIVWNKKGKKVSW [N24W] has what recorded protein stability index? 1.92

Item FICQATGDPRPKIVWNKSGKKVSN [K18S] has what recorded protein stability index? 1.61

Item FICQATGGPRPKIVWNKKGKKVSN [D8G] has what recorded protein stability index? 1.98

Item FICQATGDPRPKIVWNKKGKKVSV [N24V] has what recorded protein stability index? 2.33

Item FICQATGDPRPKIVWNKKGQKVSN [K20Q] has what recorded protein stability index? 2.56

Item FICQETGDPRPKIVWNKKGKKVSN [A5E] has what recorded protein stability index? 1.92

Item FICQATGDPRPKIVWMKKGKKVSN [N16M] has what recorded protein stability index? 1.74
